Tested on: KRas wild type
Protocol: Ras GTP Binding Domain Inhibition Assay (Ras Superfamily Assay)
Test context: 20 μM compound, with SOS
Property: KRas wild type + SOS: % inh.

Ask: What value of KRas wild type + SOS: % inh. has been reported for the following compound? COc1cccc(-c2cn3nc(-c4nccn4C)nc(N[C@@H]4CC[C@@H](OC)C4)c3c2-c2ccccc2)c1F (racemic)
Result: 0 (0 = 0% inhibition)

----------
Test system: KRas G12D mutant
Protocol: Ras GTP Binding Domain Inhibition Assay (Ras Superfamily Assay)
Test context: 20 μM compound, with SOS
Entries and their KRas G12D mutant + SOS: % inh.

Compound | Recorded result
COc1cccc(-c2cn3nc(-c4nccn4C)nc(N[C@@H]4CC[C@@H](OC)C4)c3c2-c2ccccc2)c1F (racemic) | 0 (0 = 0% inhibition)
CO[C@H]1CC[C@H](Nc2nc(-c3nccn3C)nn3cc(-c4ccn(C)n4)c(C(=O)NCC(F)(F)F)c23)C1 (racemic) | 0 (0 = 0% inhibition)

Here is another compound to look at.
Ask: Report KRas G12D mutant + SOS: % inh. for `COc1cccc(Nc2nc(-c3nccn3C)nn3ccc(C)c23)n1` tested on KRas G12D mutant.
Result: 0 (0 = 0% inhibition)

----------
Recorded inhibition at 20 µM values for a group of compounds are listed next.
Tested target: Rac-1 (Homo sapiens)
Construct: made in house
Protocol: Ras GTP Binding Domain Inhibition Assay (Ras Superfamily Assay)
Test context: read-out: Rac-1: % inh.

Compound | inhibition at 20 µM
COc1cc(Nc2nc(-c3nccn3C)nn3cc(-c4ccccn4)c(C)c23)ncn1 [Compound 94] | 50 to 75%

Please examine the following record next.
Ask: Name the reported inhibition at 20 µM value associated with the compound COc1ccnc(Nc2nc(-c3nccn3C)nn3cc(-c4ccn(C5CC5)n4)c(C)c23)c1 [Compound 137]
Result: 50 to 75%

----------
Tested on: KRas G12C mutant
Protocol: Ras GTP Binding Domain Inhibition Assay (Ras Superfamily Assay)
Test context: 20 μM compound, without SOS
Property: KRas G12C mutant: % inh.

Compound | Property | Recorded result
COC1CCCN(c2nc(-c3ccccn3)nn3cc(-c4ccn(C(C)C)n4)c(-c4ccccc4)c23)C1 (racemic) | KRas G12C mutant: % inh. | 0 (0 = 0% inhibition)
COC[C@@H]1CC[C@@H]1CNc1nc(-c2ccccn2)nn2cc(-c3ccn(C(C)C)n3)c(-c3ccccc3)c12 (racemic) | KRas G12C mutant: % inh. | 0 (0 = 0% inhibition)
COCCNc1nc(-c2nccn2C)nn2cc(-c3ccn(C(C)C)n3)c(C(C)C)c12 | KRas G12C mutant: % inh. | A (A = 1-25% inhibition)
COc1cccc(-c2cn3nc(-c4nccn4C)nc(O)c3c2-c2ccccc2)c1Cl | KRas G12C mutant: % inh. | A (A = 1-25% inhibition)

----------
Listed next: entries and their corresponding KRas G12C mutant: % inh..
Tested on: KRas G12C mutant
Protocol: Ras GTP Binding Domain Inhibition Assay (Ras Superfamily Assay)
Test context: 20 μM compound, without SOS

Reference set (2 entries):
Structure notation | Property | Recorded result
COc1cccc(-c2cn3nc(-c4nccn4C)nc(N[C@H]4C[C@H](OC)C4)c3c2-c2ccccc2)c1F | KRas G12C mutant: % inh. | 0 (0 = 0% inhibition)
Cc1c(-c2ccn(C(C)C)n2)cn2nc(-c3nccn3C)nc(Nc3ccncc3)c12 | KRas G12C mutant: % inh. | 0 (0 = 0% inhibition)

Please examine the following record next.
Ask: Requested read-out KRas G12C mutant: % inh., target or system KRas G12C mutant, entry `COCCO[C@H]1C[C@H](Nc2nc(-c3nccn3C)nn3cc(-c4ccn(C(C)C)n4)c(C)c23)C1`
Result: 0 (0 = 0% inhibition)

----------
Reported IC50 values are given for each entry in this list.
Test system: A375 (wild type Kras)
Protocol: Proliferation Assay (Cell Viability Assay)
Type: cell-based
Test context: Homo sapiens, A-375; A375, melanoma, KRas WT; read-out: Proliferation assay IC50

Structure notation | IC50
COc1ccnc(Nc2nc(-c3nccn3C)nn3cc(-c4ccn(C(C)C)n4)c(C)c23)c1 | < 150 nM

Ask: Lab request: please report IC50 under test system A375 (wild type Kras) for `COc1cc(Nc2nc(-c3nccn3C)nn3cc(-c4ccn(C(C)C)n4)c(C)c23)ncn1`
Result: < 150 nM

----------
System: KRas G12D mutant
Protocol: Ras GTP Binding Domain Inhibition Assay (Ras Superfamily Assay)
Test context: at 20 μM, without SOS
Property: KRas G12D mutant: % inh.

Molecule | Recorded result
CO[C@H]1C[C@H](Nc2nc(-c3nccn3C)nn3cc(-c4ccc(CN)cc4)c(-c4ccccc4)c23)C1.Cl [Compound 206] | A (A = 1-25% inhibition)
CO[C@@H]1C[C@H]1Nc1nc(-c2nccn2C)nn2cc(-c3ccncc3)c(-c3ccccc3)c12 (racemic) [Compound 197] | A (A = 1-25% inhibition)
CO[C@H]1C[C@H](Nc2nc(-c3nccn3C)nn3cc(-c4ccn(C)n4)c(C4CC4)c23)C1 [Compound 275] | A (A = 1-25% inhibition)

----------
Test system: KRas wild type
Protocol: Ras GTP Binding Domain Inhibition Assay (Ras Superfamily Assay)
Test context: 20 μM compound, without SOS
Property: KRas wild type: % inh.

Some compounds with known KRas wild type: % inh. results, for comparison:
Compound | Tested target | Property | Recorded result
Cc1c(-c2ccn(C)n2)cn2nc(-c3nccn3C)nc(Nc3nccn3C)c12 | KRas wild type | KRas wild type: % inh. | A (A = 1-25% inhibition)
COc1cc(-c2cn3nc(-c4nccn4C)nc(N[C@H]4C[C@H](OC)C4)c3c2C)ccn1 | KRas wild type | KRas wild type: % inh. | 0 (0 = 0% inhibition)
COc1ncccc1Nc1nc(-c2nccn2C)nn2cc(-c3ccn(C(C)C)n3)c(C)c12 | KRas wild type | KRas wild type: % inh. | 0 (0 = 0% inhibition)
COCCCNC(=O)c1c(-c2ccn(C)n2)cn2nc(-c3nccn3C)nc(N[C@H]3CC[C@H](OC)C3)c12 (racemic) | KRas wild type | KRas wild type: % inh. | A (A = 1-25% inhibition)
COCCO[C@H]1C[C@H](Nc2nc(-c3nccn3C)nn3cc(-c4ccn(C)n4)c(C)c23)C1 | KRas wild type | KRas wild type: % inh. | A (A = 1-25% inhibition)

Ask: Please give the measured KRas wild type: % inh. for this compound: `COc1cc(-c2cn3nc(-c4nccn4C)nc(N[C@H]4C[C@@H](OC)C4)c3c2C)ccn1`
Result: A (A = 1-25% inhibition)

Ask: I would be grateful if you could share the reported KRas wild type: % inh. for CO[C@H]1CC[C@@H](Nc2nc(-c3nccn3C)nn3cc(-c4ccn(C(C)C)n4)c(C)c23)C1 (racemic) .
Result: 0 (0 = 0% inhibition)

Ask: Form field: reported KRas wild type: % inh. of CO[C@H]1CC[C@H](Nc2nc(-c3nccn3C)nn3cc(-c4ccn(C)n4)c(C(=O)NCCN4CCOCC4)c23)C1 (racemic)
Result: A (A = 1-25% inhibition)

Ask: Request the reported KRas wild type: % inh. associated with COCC1CCN(c2nc(-c3ccccn3)nn3cc(-c4ccn(C(C)C)n4)c(C)c23)C1 (racemic)
Result: A (A = 1-25% inhibition)

----------
Tested on: KRas wild type
Protocol: Ras GTP Binding Domain Inhibition Assay (Ras Superfamily Assay)
Test context: 20 μM compound, with SOS
Counter-ions that a name gives are not always drawn.
Property: KRas wild type + SOS: % inh.

Observe how each entry below is paired with its result.
Compound | Recorded result
CO[C@H]1C[C@H](Nc2nc(-c3nccn3C)nn3cc(-c4ccn(C)n4)c(C)c23)C1 [Compound 103, hydrochloride salt] | A (A = 1-25% inhibition)
CCc1nc(Nc2nc(-c3nccn3C)nn3cc(-c4ccn(C(C)C)n4)c(C)c23)nn1C [Compound 76] | 0 (0 = 0% inhibition)
CO[C@@H]1CC[C@@H](Nc2nc(-c3nccn3C)nn3cc(-c4ccn(C)n4)c(C)c23)C1 (racemic) [Compound 132] | 0 (0 = 0% inhibition)
COCCCNc1nc(-c2nccn2C)nn2cc(-c3cccc(OC)c3Cl)c(-c3ccccc3)c12 [Compound 30] | 0 (0 = 0% inhibition)
COCC1CCN(c2nc(-c3ccccn3)nn3cc(-c4ccn(C(C)C)n4)c(-c4ccccc4)c23)C1 (racemic) [Compound 25] | A (A = 1-25% inhibition)

Ask: Look up KRas wild type + SOS: % inh.: Cc1c(-c2ccn(C(C)C)n2)cn2nc(-c3nccn3C)nc(Nc3ncc(C4CC4)o3)c12 [Compound 90]
Result: 0 (0 = 0% inhibition)

Ask: Recorded KRas wild type + SOS: % inh. for COCCO[C@H]1C[C@H](Nc2nc(-c3nccn3C)nn3cc(-c4ccn(C(C)C)n4)c(C)c23)C1 [Compound 92] , please?
Result: 0 (0 = 0% inhibition)

Ask: // KRas wild type + SOS: % inh. lookup, key: COc1ncc(Nc2nc(-c3nccn3C)nn3cc(-c4ccn(C(C)C)n4)c(C)c23)cn1 [Compound 80]
Result: A (A = 1-25% inhibition)

Ask: // returns reported KRas wild type + SOS: % inh. for input COCCCNC(=O)c1c(-c2ccn(C)n2)cn2nc(-c3nccn3C)nc(N[C@H]3CC[C@H](OC)C3)c12 (racemic) [Compound 184]
Result: A (A = 1-25% inhibition)

Ask: What value of measured KRas wild type + SOS: % inh. is listed for Cn1ccnc1-c1nc(OCCN2CCCC2)c2c(-c3ccccc3)ccn2n1 [Compound 41] ?
Result: 0 (0 = 0% inhibition)

Ask: # get_value(readout='KRas wild type + SOS: % inh.', item= CO[C@H]1CC[C@@H](Nc2nc(-c3nccn3C)nn3cc(-c4ccn(C(C)C)n4)c(C(C)C)c23)C1 (racemic) [Compound 36] )
Result: A (A = 1-25% inhibition)
